test.system: KRAS G12D (Homo sapiens, UniProt P01116, G12D)
Sequence (P01116 1-188 isoform P01116-2 G12D): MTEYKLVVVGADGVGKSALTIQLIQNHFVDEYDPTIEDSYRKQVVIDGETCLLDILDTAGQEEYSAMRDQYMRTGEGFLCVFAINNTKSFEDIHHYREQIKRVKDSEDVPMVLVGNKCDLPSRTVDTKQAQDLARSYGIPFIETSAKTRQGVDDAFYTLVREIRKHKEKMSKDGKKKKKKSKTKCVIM
measurement.description: GDP-GTP exchange assay (bodipy-GDP/GppNHp, SOS1), KRAS G12D
Format: biochemical
test.parameters: bodipy-loaded KRAS G12D 2.5 nM, 4 h pre-incubation; value for the most potent isomer quoted for certain compounds; read-out: G12D (KRAS G12D exchange assay IC50)
pIC50: −log10 of the molar value.
Listed next: entries and their corresponding pIC50.
measured.quantity: pIC50

{"molecule": "Cc1nc2c(F)c(-c3cccc(Cl)c3Cl)c(CCC#N)cc2c2c1cc([C@H]1C[C@H](OCc3ccccn3)CN1C(=O)C1CC1)n2[C@H]1[C@H]2CN[C@@H]1C2 [Example 94]", "measured.quantity": "pIC50", "endpoint.value": "≥ 7.00"}
{"molecule": "COc1cccnc1O[C@H]1C[C@H](c2cc3c(C)nc4c(F)c(-c5cccc(Cl)c5Cl)c(CCC#N)cc4c3n2[C@H]2[C@H]3CN[C@@H]2C3)N(C(=O)C2CC2)C1 [Example 307]", "measured.quantity": "pIC50", "endpoint.value": "6.00 to 7.00"}
{"molecule": "COC1CN(c2cc(O[C@H]3C[C@H](c4cc5c(C)nc6c(F)c(-c7cccc(Cl)c7Cl)c(CCC#N)cc6c5n4[C@H]4[C@H]5CN[C@@H]4C5)N(C(=O)C4CC4)C3)ccn2)C1 [Example 366]", "measured.quantity": "pIC50", "endpoint.value": "≥ 7.00"}

----------
Listed next: entries and their corresponding pIC50.
test.system: KRAS G12V (Homo sapiens, UniProt P01116, G12V)
Sequence (P01116 1-188 isoform P01116-2 G12V): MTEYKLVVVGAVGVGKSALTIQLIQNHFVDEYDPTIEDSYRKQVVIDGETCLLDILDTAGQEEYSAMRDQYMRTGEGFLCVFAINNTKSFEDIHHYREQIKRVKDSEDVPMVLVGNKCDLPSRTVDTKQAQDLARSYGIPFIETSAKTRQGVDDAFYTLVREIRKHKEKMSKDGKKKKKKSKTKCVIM
measurement.description: GDP-GTP exchange assay (bodipy-GDP/GppNHp, SOS1), KRAS G12V
Type: biochemical
test.parameters: KRAS G12V mutant; value for the most potent isomer quoted for certain compounds; read-out: G12V (KRAS G12V exchange assay IC50)
pIC50: −log10 of the molar value.

{"molecule": "Cc1nc2c(F)c(-c3cccc(Cl)c3Cl)c(CCC#N)cc2c2c1cc([C@H]1C[C@H](n3cc(N4CCOCC4)cn3)CN1C(=O)C1CC1)n2[C@H]1[C@H]2CN[C@@H]1C2", "test.system": "KRAS G12V (Homo sapiens, UniProt P01116, G12V)", "pIC50": "≥ 7.00"}
{"molecule": "Cc1ccc(O[C@H]2C[C@H](c3cc4c(C)nc5c(F)c(-c6cccc(Cl)c6Cl)c(CCC#N)cc5c4n3[C@H]3[C@H]4CN[C@@H]3C4)N(C(=O)C3CC3)C2)cc1", "test.system": "KRAS G12V (Homo sapiens, UniProt P01116, G12V)", "pIC50": "≥ 7.00"}
{"molecule": "Cc1nc2c(F)c(-c3cccc(Cl)c3Cl)c(CCC#N)cc2c2c1cc([C@H]1C[C@H](n3cc(-c4ccccc4)cn3)CN1C(=O)C1CC1)n2[C@H]1[C@H]2CN[C@@H]1C2", "test.system": "KRAS G12V (Homo sapiens, UniProt P01116, G12V)", "pIC50": "6.00 to 7.00"}
{"molecule": "Cc1nc2c(F)c(-c3cccc(Cl)c3Cl)c(CCC#N)cc2c2c1cc([C@H]1C[C@H](OC(C)c3ccccn3)CN1C(=O)C1CC1)n2[C@H]1[C@H]2CN[C@@H]1C2 (some centres unmarked)", "test.system": "KRAS G12V (Homo sapiens, UniProt P01116, G12V)", "pIC50": "≥ 7.00"}
{"molecule": "COc1nccc(C#N)c1O[C@H]1C[C@H](c2cc3c(C)nc4c(F)c(-c5cccc(Cl)c5Cl)c(CCC#N)cc4c3n2[C@H]2[C@H]3CN[C@@H]2C3)N(C(=O)C2CC2)C1", "test.system": "KRAS G12V (Homo sapiens, UniProt P01116, G12V)", "pIC50": "≥ 7.00"}
